biological target: [Pyruvate dehydrogenase (acetyl-transferring)] kinase isozyme 1, mitochondrial (Homo sapiens, UniProt Q15118)
Sequence (Q15118 whole entry): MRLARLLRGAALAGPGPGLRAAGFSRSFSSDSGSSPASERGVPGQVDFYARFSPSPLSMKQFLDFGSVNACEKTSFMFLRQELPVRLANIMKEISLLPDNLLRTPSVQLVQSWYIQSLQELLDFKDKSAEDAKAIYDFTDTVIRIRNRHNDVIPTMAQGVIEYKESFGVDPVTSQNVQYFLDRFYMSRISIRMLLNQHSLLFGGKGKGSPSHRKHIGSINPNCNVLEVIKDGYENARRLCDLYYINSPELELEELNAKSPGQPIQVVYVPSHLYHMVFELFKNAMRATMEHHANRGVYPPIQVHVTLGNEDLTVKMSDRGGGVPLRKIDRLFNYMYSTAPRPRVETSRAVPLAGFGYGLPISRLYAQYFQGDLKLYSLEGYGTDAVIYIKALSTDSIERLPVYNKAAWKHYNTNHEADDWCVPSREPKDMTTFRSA
pIC50: −log10 of the molar value.
reported-endpoint: pIC50

Below, 10 molecules whose answers are already recorded.
> print(dat)
                          chemical.structure  reported.endpoint  assay.result
 1  CN(C)C(=O)c1ccc(N(Cc2ccc(Cl)o2)C(=O)c2ccc(O)cc2O)cc1              pIC50          7.62
 2  CN(C)C(=O)c1ccc(N(Cc2ccc(O)cc2)C(=O)c2ccc(O)cc2O)cc1              pIC50          6.95
 3  CN(C)C(=O)c1ccc(N(Cc2cnc(Br)s2)C(=O)c2ccc(O)cc2O)cc1              pIC50          7.62
 4  CN(C)C(=O)c1ccc(N(Cc2ccc(Br)o2)C(=O)c2ccc(O)cc2O)cc1              pIC50          7.44
 5  CN(C)C(=O)c1ccc(N(Cc2cc(Br)cs2)C(=O)c2ccc(O)cc2O)cc1              pIC50          8.05
 6  CN(C)C(=O)c1ccc(N(Cc2ccc(Br)s2)C(=O)c2ccc(O)cc2O)cc1              pIC50          7.38
 7  CN(C)C(=O)c1ccc(N(Cc2ccc(I)o2)C(=O)c2ccc(O)cc2O)cc1              pIC50          7.85
 8  CN(C)C(=O)c1ccc(N(CC2CCCCC2)C(=O)c2ccc(O)cc2O)cc1              pIC50          6.85
 9  Cc1ccc(CN(C(=O)c2ccc(O)cc2O)c2ccc(C(=O)N(C)C)cc2)o1              pIC50          7.70
10  CN(C)C(=O)c1ccc(N(Cc2ccc(F)cc2)C(=O)c2ccc(O)cc2O)cc1              pIC50          7.17

(A) CN(C)C(=O)c1ccc(N(Cc2ccco2)C(=O)c2ccc(O)cc2O)cc1
(B) CN(C)C(=O)c1ccc(N(Cc2ncc(Br)s2)C(=O)c2ccc(O)cc2O)cc1
(C) CN(C)C(=O)c1ccc(N(Cc2ccccc2)C(=O)c2ccc(O)cc2O)cc1
Data request: Rank the 3 molecules: largest pIC50 first, smallest last. Thanks in advance for listing the labels in the requested order.
Data returned: B, A, C

(I) CN(C)C(=O)c1ccc(N(Cc2ccc(C#N)cc2)C(=O)c2ccc(O)cc2O)cc1
(II) CN(C)C(=O)c1ccc(N(Cc2ccc(C#N)s2)C(=O)c2ccc(O)cc2O)cc1
Data request: Of the two listed items, which has the higher pIC50? First: I Second: II Write the label of whichever entry you select.
Data returned: II
(II: 7.24, I: 6.82)

====

target: [Pyruvate dehydrogenase (acetyl-transferring)] kinase isozyme 4, mitochondrial (Homo sapiens, UniProt Q16654); experiment: Inhibition of PDHK4 (unknown origin) by radiometric biochemical kinase assay
Sequence (Q16654 whole entry): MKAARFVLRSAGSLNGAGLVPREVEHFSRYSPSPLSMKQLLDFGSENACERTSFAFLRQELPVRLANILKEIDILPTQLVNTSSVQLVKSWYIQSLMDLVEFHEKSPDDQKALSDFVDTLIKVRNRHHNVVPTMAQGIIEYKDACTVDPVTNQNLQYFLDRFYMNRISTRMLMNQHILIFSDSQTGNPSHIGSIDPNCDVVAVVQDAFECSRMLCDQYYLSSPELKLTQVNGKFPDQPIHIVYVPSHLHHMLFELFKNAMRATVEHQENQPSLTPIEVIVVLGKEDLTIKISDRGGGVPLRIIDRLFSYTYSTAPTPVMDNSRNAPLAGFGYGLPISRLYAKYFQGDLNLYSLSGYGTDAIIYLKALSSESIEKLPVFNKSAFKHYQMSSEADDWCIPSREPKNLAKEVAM
pIC50: −log10 of the molar value.
reported-endpoint: pIC50

> print(dat)
                         chemical.structure  reported.endpoint  assay.result
1  CN(C)C(=O)c1ccc(N(Cc2ccc(Cl)o2)C(=O)c2ccc(O)cc2O)cc1              pIC50          7.09
2  CN(C)C(=O)c1ccc(N(Cc2ccco2)C(=O)c2ccc(O)cc2O)cc1              pIC50          7.16
3  CN(C)C(=O)c1ccc(N(Cc2ccc(C#N)s2)C(=O)c2ccc(O)cc2O)cc1              pIC50          7.05
